Reported kon values for the following binders.
target: T1, Vaccinia Virus, Western Reserve, L1R Protein with C-Terminal Histidine Tag (Vaccinia virus, strain Western Reserve, UniProt P07612); experiment: SPR; […] (10 µg/ml, […], dissociation 600 s; […]; conditions: both partners purified
T1 construct: also called L1 antigen; recombinant L1 antigen; source: obtained through BEI Resources (NR-2625), recombinant from baculovirus
value.type: kon (M⁻¹ s⁻¹)

binder	value.type	number
L1-C5 (VHH, llama sdAb of the L1-H7 family; has a single N to Y substitution in framework 3 not seen in other members of the family; also called sdAb L1-C5) VHH: EVQLQASGGGLVQAGGSLRLSCIASGRAFSTTNMGWFRQAPGKEREFVTRVNWSGGVTSYADSVKGRFTLSRDYTKNTVYLQMNSLKPEDTAVYYCAGSTVWSTDRAHYNYWGQGTQVTVSS	kon	7.2e+06
L1-G2+ (VHH, also called disulfide mutant of L1-G2) VHH: EVQLQASGGGLVQAGGSLRLSCTASGRAFSTTNMGWFRQAPGKEREFVCRVNWSGGVTSYADSVKGRFTCSRDNTKNTVYLQMDSLKPEDTAVYYCAGSTVWSTDRKHYNYWGQGTQVTVSS	kon	2.1e+06
L1-E6 (VHH, llama sdAb of the L1-H7 family; also called sdAb L1-E6) VHH: EVQLQASGGGLVQAGGSLRLSCIASGRAFSTTNMGWFRQAPGKEREFVTRVNWSGGVTSYADPVKGRFTLSRDNTKNTVYLQMNSLKPEDTAVYYCAGSTVWSTDGAHYNYWGQGTQVTVSS	kon	390000
L1-G2 (VHH, llama sdAb of the L1-H7 family; also called sdAb L1-G2) VHH: EVQLQASGGGLVQAGGSLRLSCTASGRAFSTTNMGWFRQAPGKEREFVTRVNWSGGVTSYADSVKGRFTLSRDNTKNTVYLQMDSLKPEDTAVYYCAGSTVWSTDRKHYNYWGQGTQVTVSS	kon	530000
